I'd appreciate it if you could supply ED50 values for the items below.
- System: aconitine-induced arrhythmia
- assay.overview: Aconitine-induced arrhythmia in rats, oral administration (antiarrhythmic activity)
- Type: in vivo, male Sprague-Dawley rats
- conditions: Rattus norvegicus, po, 1 h, read-out: Aconitine-induced arrhythmia ED 50% (dose which prolongs the aconitine infusion duration by 50%)
Express your answer in mg/kg, writing the number without its unit.

Look at this molecule and give its reported ED50. C=C[C@H]1C[N@@]2CC[C@H]1C[C@@H]2[C@@H](O)c1ccnc2ccc(OC)cc12 [quinidine, reference compound]
43.5

Please give the result for CC(=O)N1CCc2c([nH]c3ccccc23)C1CCCN(C)C (stereo not shown) too.
13.5

Please give the result for CCCN(CCC)CCCC1c2c(c3ccccc3n2C)CCN1C(C)=O (stereo not shown) too.
0.842

Please give the result for CC(=O)N1CCc2c([nH]c3ccccc23)C1CCCN1CCN(C)CC1 (stereo not shown) too.
14.6

Please give the result for CCC(C)N(CCCC1c2[nH]c3ccccc3c2CCN1C(C)=O)C(C)CC (stereo not shown) too.
1.57

Please give the result for CCn1c2c(c3ccccc31)CCN(C(C)=O)C2CCCN1CCN(C)CC1 (stereo not shown) too.
9.21

Please give the result for CCCCNCCCC1c2[nH]c3ccccc3c2CCN1C(C)=O (stereo not shown) too.
12.4

Please give the result for CCCN(CCCC1c2c(c3ccccc3n2C)CCN1C(C)=O)C(C)C (stereo not shown) too.
0.732

Please give the result for CC(=O)N1CCc2c(n(C)c3ccccc23)C1CCCN(CC(C)C)CC(C)C (stereo not shown) too.
0.803

Please give the result for CCCCN(CCCC)CCCC1c2[nH]c3ccccc3c2CCN1C(C)=O (stereo not shown) too.
1.71
